Data credit: ChEMBL document CHEMBL3988442

TARGET ENTITY: Tyrosyl-tRNA synthetase, putative (Trypanosoma cruzi (strain CL Brener)) (UniProt Q4DSP6)
Sequence (Q4DSP6 as listed by the source): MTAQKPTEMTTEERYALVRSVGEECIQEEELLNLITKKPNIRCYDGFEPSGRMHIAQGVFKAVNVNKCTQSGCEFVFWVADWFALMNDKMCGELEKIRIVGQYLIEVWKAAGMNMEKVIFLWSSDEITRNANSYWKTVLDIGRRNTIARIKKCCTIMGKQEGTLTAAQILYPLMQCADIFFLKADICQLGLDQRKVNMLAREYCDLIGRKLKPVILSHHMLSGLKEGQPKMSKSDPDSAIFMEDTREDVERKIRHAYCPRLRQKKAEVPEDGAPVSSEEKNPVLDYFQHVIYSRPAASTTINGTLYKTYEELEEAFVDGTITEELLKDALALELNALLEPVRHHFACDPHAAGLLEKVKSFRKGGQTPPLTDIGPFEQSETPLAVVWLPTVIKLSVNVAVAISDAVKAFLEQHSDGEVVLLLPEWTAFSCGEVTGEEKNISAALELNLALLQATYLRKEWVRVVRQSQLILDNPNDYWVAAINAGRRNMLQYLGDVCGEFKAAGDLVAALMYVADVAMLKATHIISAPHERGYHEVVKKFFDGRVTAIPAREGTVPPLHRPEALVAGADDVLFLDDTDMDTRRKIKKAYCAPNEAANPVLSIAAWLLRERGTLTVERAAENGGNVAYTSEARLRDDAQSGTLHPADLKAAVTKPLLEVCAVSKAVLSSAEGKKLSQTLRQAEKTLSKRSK
PROTOCOL DESCRIPTION: Trypanosoma cruzi tyrosyl tRNA synthetase (TcYRS) _High Tyrosine SOP
Format: functional
Parameters: scale not given: in the data most compounds retested in dose-response had high values
STATED CONDITIONS: 30 µM
EXPERIMENTAL READOUT: Percent Effect (%)
API: value field is a number in %; no unit string.

Here's what some known entries look like.
COMPOUND	TARGET ENTITY	Percent Effect, %
Cc1csc(CN2CC[C@H]3C[C@H](c4nnc(C)[nH]4)O[C@@H]3C2)n1	Tyrosyl-tRNA synthetase, putative (Trypanosoma cruzi (strain CL Brener)) (UniProt Q4DSP6)	3.12
CC(C)c1ccc(O)c(C(=O)N2CCN(Cc3cscn3)CC2)c1	Tyrosyl-tRNA synthetase, putative (Trypanosoma cruzi (strain CL Brener)) (UniProt Q4DSP6)	5.94
CCS(=O)(=O)N1CCC2(CC1)CC(Oc1ccccn1)CO2 (centres undefined)	Tyrosyl-tRNA synthetase, putative (Trypanosoma cruzi (strain CL Brener)) (UniProt Q4DSP6)	2.12

Switching to the query record.
Output measured Percent Effect for this item: `COc1cc(C(C)=O)ccc1OCC(=O)N(C)Cc1cnn(C)c1`
6.4
